# target-or-system: Tyrosine-protein phosphatase non-receptor type 6 (Homo sapiens)
# protocol: Induction of SHP1 activation in IL-6-stimulated human PLC5 cells assessed as reduction of p-STAT3 at 10 uM after 24 hrs by ELISA
# Format: cell-based
Calls of active or inactive are those of the source. No cut-off for these calls is given here.
observed-property: Activity

* N#Cc1ccc(Oc2cccc(NC(=O)c3ccccc3)c2)cc1 | inactive
* CNC(=O)c1cc(Oc2cccc(NC(=O)c3ccccc3)c2)ccn1 | inactive
* Nc1ccc(Oc2cccc(NS(=O)(=O)c3cccc(C(F)(F)F)c3)c2)cc1N | inactive

* * *

# target-or-system: Tyrosine-protein phosphatase non-receptor type 6 (Homo sapiens) (UniProt P29350)
# Sequence (P29350 whole entry): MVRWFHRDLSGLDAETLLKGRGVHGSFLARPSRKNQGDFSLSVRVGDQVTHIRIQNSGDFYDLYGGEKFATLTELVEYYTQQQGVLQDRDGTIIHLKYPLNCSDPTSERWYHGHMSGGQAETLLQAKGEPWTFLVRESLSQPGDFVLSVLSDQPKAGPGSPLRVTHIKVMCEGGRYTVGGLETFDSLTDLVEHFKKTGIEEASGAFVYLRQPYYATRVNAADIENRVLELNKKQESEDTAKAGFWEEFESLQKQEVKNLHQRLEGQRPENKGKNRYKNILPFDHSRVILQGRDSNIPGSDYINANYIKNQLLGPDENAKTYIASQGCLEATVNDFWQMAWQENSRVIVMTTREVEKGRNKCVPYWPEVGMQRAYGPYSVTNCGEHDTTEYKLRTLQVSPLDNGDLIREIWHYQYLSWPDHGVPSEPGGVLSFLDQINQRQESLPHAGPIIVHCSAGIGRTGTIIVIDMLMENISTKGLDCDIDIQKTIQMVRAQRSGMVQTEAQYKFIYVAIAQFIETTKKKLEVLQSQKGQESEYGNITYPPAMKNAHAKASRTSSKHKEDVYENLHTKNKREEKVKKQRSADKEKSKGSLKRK
# protocol: Induction of SHP1 activation in IL-6-stimulated human PLC5 cells assessed as reduction of p-STAT3 at 10 uM after 24 hrs by ELISA
# Assay type: cell-based
Active and inactive are the calls of the source. No cut-off for these calls is given here.
Classes used: active, inactive

- COc1ccc(CNC(=O)Nc2ccc(Oc3ccc(C#N)cc3)cc2)cc1OC: active
- N#Cc1ccc(Oc2cccc(NCc3cccc(OC(F)(F)F)c3)c2)cc1: inactive
- Nc1ccc(Oc2cccc(NCc3cccc(OC(F)(F)F)c3)c2)cc1N: inactive
- N#Cc1ccc(Oc2cccc(NC(=O)Nc3cccc(F)c3)c2)cc1: active
- C[C@@H](NC(=O)Nc1ccc(Oc2ccc(C#N)cc2)cc1)c1cccc2ccccc12: inactive
- CNC(=O)c1cc(Oc2cccc(NC(=O)Nc3cccc(F)c3)c2)ccn1: inactive
- N#Cc1ccc(Oc2ccc(CNC(=O)Nc3ccc(Cl)c(C(F)(F)F)c3)cc2)cc1: active
- N#Cc1ccc(Oc2cccc(NS(=O)(=O)c3cccc(C(F)(F)F)c3)c2)cc1: active
- O=c1[nH]c2ccc(Oc3cccc(NCc4cccc(OC(F)(F)F)c4)c3)cc2[nH]1: active
- Nc1cc(Oc2cccc(NC(=O)Nc3ccc(Cl)c(C(F)(F)F)c3)c2)ccc1[N+](=O)[O-]: active
- O=c1[nH]c2ccc(Oc3cccc(NS(=O)(=O)c4cccc(C(F)(F)F)c4)c3)cc2[nH]1: active
- Nc1cc(Oc2cccc(NCc3cccc(OC(F)(F)F)c3)c2)ccc1[N+](=O)[O-]: active
- Cc1ccc(NC(=O)Nc2ccc(Cl)c(C(F)(F)F)c2)cc1Oc1ccc(C#N)cc1: active
- CNC(=O)c1cc(Oc2cccc(NS(=O)(=O)c3ccccc3)c2)ccn1: inactive
- N#Cc1ccc(Oc2ccc(CNC(=O)NCc3cccc(OC(F)(F)F)c3)cc2)cc1: inactive
- N#Cc1ccc(Oc2cccc(NS(=O)(=O)c3ccccc3)c2)cc1: inactive
- CNC(=O)c1cc(Oc2cccc(NS(=O)(=O)c3cccc(C(F)(F)F)c3)c2)ccn1: active
- N#Cc1ccc(Oc2cccc(NC(=O)Nc3ccc(Cl)c(C(F)(F)F)c3)c2)cc1 [SC-43]: active
- Nc1cc(Oc2cccc(NS(=O)(=O)c3cccc(C(F)(F)F)c3)c2)ccc1[N+](=O)[O-]: active
- CNC(=O)c1cc(Oc2cccc(NCc3cccc(OC(F)(F)F)c3)c2)ccn1: inactive
